Tested on: Saccharomyces cerevisiae
Experiment: protein stability index of tFT-peptide fusion in deletion strain of DOA10 (PSI (0-1 scale)); higher = more stable (slower turnover)
Quick reference for protein stability index among some sequences
Quantity name: protein stability index

>>> endpoint_value("RNLRVLLPLYFR")
0.682
>>> endpoint_value("CLVSLPILTFFR")
0.643
>>> endpoint_value("CLVRLPILLFFR")
0.595
>>> endpoint_value("CLASLPILLFFR")
0.626
>>> endpoint_value("RSLRVILPLYFR")
0.675
>>> endpoint_value("GLYMCSHGCWFR")
0.695
>>> endpoint_value("RVTRLMAIYFRI")
0.295
>>> endpoint_value("RSLRVLLPLYFT")
0.478
>>> endpoint_value("AITLPMCQLLLR")
0.663
>>> endpoint_value("RFTRLDAIYFRI")
0.656
>>> endpoint_value("CLVSIPILLFFR")
0.556
>>> endpoint_value("AFTLPMCPLLLR")
0.653
>>> endpoint_value("GLYMCSVDCWFR")
0.615
>>> endpoint_value("GLYMCPVGCWFR")
0.664
>>> endpoint_value("QLYMCSVGCWFR")
0.625
>>> endpoint_value("RSLRVLYPLYFR")
0.67
>>> endpoint_value("RSLRVLLPLYFQ")
0.615
>>> endpoint_value("RSLRVLRPLYFR")
0.684
>>> endpoint_value("CLVSLPILLFFRN")
0.531
>>> endpoint_value("GLYMCSFGCWFR")
0.665
>>> endpoint_value("RSLRVLLRLYFR")
0.625
>>> endpoint_value("RSLRWLLPLYFR")
0.642
>>> endpoint_value("RSLRVLLPLKFR")
0.67
>>> endpoint_value("CLVSLPILLMFR")
0.581
>>> endpoint_value("CKVSLPILLFFR")
0.621
>>> endpoint_value("RDTRLDAIYFRI")
0.644

* * *

Reported protein stability index values follow for various sequences
Test system: Saccharomyces cerevisiae
Experiment: protein stability index of tFT-peptide fusion (C-terminal peptide) (PSI (0-1 scale)); higher = more stable (slower turnover)
Conditions: genetic background: das1 deletion; temperature: 30 C
Quantity name: protein stability index

>>> endpoint_value("EPEAEQAVEDTA [HSP30 C-terminal 12 aa]")
0.685
>>> endpoint_value("LLDGGDGDEDAV [GON7 C-terminal 12 aa]")
0.694
>>> endpoint_value("PLTRFHSCPITA [ECM13 C-terminal 12 aa]")
0.275
>>> endpoint_value("SAIYLLIFRSTR [YPR177C C-terminal 12 aa]")
0.565
>>> endpoint_value("EKSSVKRPCVKK [RKM4 C-terminal 12 aa]")
0.674
>>> endpoint_value("ITKQKALDYHYL [CBS2 C-terminal 12 aa]")
0.698
>>> endpoint_value("GALREVIKLQKQ [SLX9 C-terminal 12 aa]")
0.704
>>> endpoint_value("KGDNITLITSAD [SME1 C-terminal 12 aa]")
0.688
>>> endpoint_value("ERRLNAIINGEV [YTH1 C-terminal 12 aa]")
0.689
>>> endpoint_value("ALEEALMDRLQF [ATG29 C-terminal 12 aa]")
0.709
>>> endpoint_value("TIKKGTTLEPIA [GCD11 C-terminal 12 aa]")
0.69
>>> endpoint_value("DSFIPLQPKKKI [YML037C C-terminal 12 aa]")
0.684
>>> endpoint_value("SQQNNNGNQNRY [RNQ1 C-terminal 12 aa]")
0.717
>>> endpoint_value("MTMILSRMSCSA [IRA2 C-terminal 12 aa]")
0.622
>>> endpoint_value("HRDIVSAGSLYL [MTR4 C-terminal 12 aa]")
0.723
>>> endpoint_value("QSILACCQESNK [LCB1 C-terminal 12 aa]")
0.702
>>> endpoint_value("KQSKKKTSFTRF [YBL028C C-terminal 12 aa]")
0.699
>>> endpoint_value("DQFQKVEKSIVK [RRF1 C-terminal 12 aa]")
0.69
>>> endpoint_value("SPKEEKRFKFKL [YGR127W C-terminal 12 aa]")
0.739
>>> endpoint_value("KYFADLTQSITK [YBR242W C-terminal 12 aa]")
0.719
>>> endpoint_value("IDDINNDKWLVI [PSK1 C-terminal 12 aa]")
0.725
>>> endpoint_value("ALSKDGIYTIAN [PAU1 C-terminal 12 aa]")
0.711
>>> endpoint_value("RHAASLLGMSTK [VPS17 C-terminal 12 aa]")
0.714
>>> endpoint_value("SLEAVSKMDKLA [AAT1 C-terminal 12 aa]")
0.723
>>> endpoint_value("EDIKQALKQATN [CYS3 C-terminal 12 aa]")
0.69
